The measured values listed here are drawn from patent US9388136B2.

targetUnderTest: p38 MAP Kinase a (Homo sapiens (Human))
Sequence (Q16539 whole entry): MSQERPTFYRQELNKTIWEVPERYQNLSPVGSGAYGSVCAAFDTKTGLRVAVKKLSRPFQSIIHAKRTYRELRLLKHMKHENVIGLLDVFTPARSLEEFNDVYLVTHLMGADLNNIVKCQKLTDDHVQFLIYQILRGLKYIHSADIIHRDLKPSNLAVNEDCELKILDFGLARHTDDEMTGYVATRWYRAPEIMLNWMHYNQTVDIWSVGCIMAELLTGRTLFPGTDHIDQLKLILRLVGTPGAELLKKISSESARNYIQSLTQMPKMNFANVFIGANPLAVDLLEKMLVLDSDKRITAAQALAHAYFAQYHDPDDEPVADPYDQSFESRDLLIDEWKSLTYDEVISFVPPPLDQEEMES
procedureSummary: p38 MAP kinase enzyme assay (radiometric filter-binding)
Type: biochemical
assayContext: ester tested; read-out: A—ester enzyme assay (p38 kinase A (invitrogen)), IC50
Method: The ability of compounds to inhibit p38 MAP a Kinase activity was measured in an assay performed by Upstate (Dundee UK). In a final reaction volume of 25 μL, p38 MAP Kinase a (5-10 mU) is incubated with 25 mM Tris pH 7.5, 0.002 mMEGTA, 0.33 mg/mL myelin basic protein, 10 mM MgAcetate and [g-33p-ATP] (specific activity approx. 500 cpm/pmol, concentration as required). The reaction is initiated by the addition of the MgATP mix. […]
Binarize IC50 at 60 nM; below is condition met, at or above is condition not met.

Problem: For the molecule CC(C)C[C@H](NCCc1cc(F)c(-n2c(N)c(C(=O)c3ccc(F)cc3)ccc2=O)c(F)c1)C(=O)OC1CCCC1 , is IC50 under 60 nM?
condition met

Same question, Nc1c(C(=O)c2ccc(F)cc2F)ccc(=O)n1-c1c(F)cc(CCN[C@H](C(=O)OC2CCCC2)c2ccccc2)cc1F this time
condition not met

Same question, CC(C)C[C@H](NCCCCCOc1cc(F)c(-n2c(N)c(C(=O)c3ccc(F)cc3F)ccc2=O)c(F)c1)C(=O)OC(C)(C)C this time
condition not met

And CC(C)C[C@H](NCCc1cc(F)c(-n2c(N)c(C(=O)c3ccc(F)cc3F)ccc2=O)c(F)c1)C(=O)OC(C)(C)C ?
condition not met

# repeat for Nc1c(C(=O)c2ccc(F)cc2F)ccc(=O)n1-c1c(F)cc(CCN[C@@H](C(=O)OC2CCCC2)c2ccccc2)cc1F
condition met

CC(C)(C)OC[C@H](NCCc1cc(F)c(-n2c(N)c(C(=O)c3ccc(F)cc3F)ccc2=O)c(F)c1)C(=O)OC(C)(C)C ?
condition not met

Could you do the same for CC(C)C[C@H](NCCc1ccc(-n2c(N)c(C(=O)c3ccc(F)cc3)ccc2=O)cc1)C(=O)OC(C)(C)C , please?
condition not met
